# Tested on: Vero-E6
# method: primary screen, phospholipidosis by LipidTOX staining; higher = more effect of the substance
# measurement context: 10 µM
In all, about 5,400 compounds went through this assay and about 190 (3.5%) showed an effect of 50% or more. Many of the other results were omitted from the sample, so strong results are more common in it than they were.
Would you mind telling me the reported result_ITMP of each entry?
Answers are plain numbers, in %.

Use the examples below as a reference point.
molecule	result_ITMP [%]
CCCN(CCC)C(=O)C(CCC(=O)[O-])NC(=O)c1ccccc1 (centres unmarked)	-3.27
CCC[C@@H]1CC2=CC(=O)CC[C@]2(C)[C@H]2CC[C@@]3(C)[C@@H](CC[C@@]3(O)CCC(=O)[O-])[C@H]12	-2.26
Nc1nc(=O)c2c([nH]1)NCC(CNc1ccc(C(=O)N[C@@H](CCC(=O)[O-])C(=O)[O-])cc1)N2C=O (some centres unmarked)	-2.25

Give result_ITMP for all molecules that follow.
1. O=C(NO)c1ccc(O)c(O)c1
2. CCC(=O)O[C@@H]1CC(=O)O[C@H](C)C/C=C/C=C/[C@H](OC(C)=O)[C@H](C)C[C@H](CC=O)[C@H](O[C@@H]2O[C@H](C)[C@@H](O[C@H]3C[C@@](C)(OC(C)=O)[C@@H](OC(=O)CC)[C@H](C)O3)[C@H](N(C)C)[C@H]2O)[C@H]1OC
3. N#CCc1ccccc1C#Cc1ccc(CCC(=O)O)c(F)c1
4. CC(C)Oc1ccc(-c2nc(-c3cccc4c3CC[C@@H]4NCCO)no2)cc1C#N
5. O=C1[C@@H]2[C@H]3CC[C@H](C3)[C@@H]2C(=O)N1C[C@@H]1CCCC[C@H]1CN1CCN(c2nsc3ccccc23)CC1
6. Cc1cccc(-c2nc(C(C)(C)C)[nH]c2-c2ccc3nccnc3c2)n1
7. CCN(CC)CCCN(c1ccccc1)C1Cc2ccccc2C1
8. C[C@@]1(CO)[C@H](O)CC[C@@]2(C)[C@H]1CC[C@H]1C[C@@H]3C[C@@]12CC[C@]3(O)CO

RESULT:
1: -2.75; 2: 7.16; 3: -8.03; 4: 39.4; 5: 3.52; 6: -5.96; 7: 51.9; 8: 0.12

====

# Test system: Vero-E6
# method: primary screen, phospholipidosis by LipidTOX staining; higher = more effect of the substance
# measurement context: 10 µM
Hit rate of the full screen: of about 5,400 compounds, about 190 (3.5%) showed an effect of 50% or more. This is one part of a sample in which strong results are shown more often than they occur.
Would you mind telling me the reported result_ITMP of each entry?
Give bare numbers, in %.

Use the examples below as a reference point.
compound	experimental system	result_ITMP, %
Cc1c(N)nc([C@H](CC(N)=O)NC[C@@H](N)C(N)=O)nc1C(=O)N[C@H](C(=O)N[C@@H](C)[C@H](O)[C@@H](C)C(=O)N[C@@H](C(=O)NCCc1nc(-c2nc(C(=O)NCCC[S+](C)C)cs2)cs1)[C@@H](C)O)C(O[C@H]1O[C@H](CO)[C@H](O)[C@@H](O)[C@H]1O[C@H]1O[C@H](CO)[C@@H](O)[C@H](OC(N)=O)[C@@H]1O)c1c[nH]cn1 (stereo partly drawn)	Vero-E6	7.07
C=C(c1ccccc1OCc1cccc(Cl)c1)n1ccnc1	Vero-E6	2.27
CC(=O)c1ccc2c(c1)N(CCCN1CCN(CCO)CC1)c1ccccc1S2	Vero-E6	74.4
CCCC(=O)Nc1ncnc2c1ncn2C1O[C@@H]2COP(=O)([O-])O[C@H]2[C@H]1OC(=O)CCC (stereo partly drawn)	Vero-E6	-5.79
C/C=C1/[C@H]2C=C(C)C[C@]1(N)c1ccc(=O)[nH]c1C2	Vero-E6	-2.16

QUERY: Look up result_ITMP: CCOC(=O)Nc1ccc2c(c1)N(C(=O)CCN1CCOCC1)c1ccccc1S2
RESULT: -8.3

The origin of these recorded values is paper PMC13083723.
